Tested on: VRE
Assay: Broth microdilution MIC, Example 7 (NCL812 and analogues)
Type: cell-based, Enterococcus spp.
Conditions: isolate VRE 2; 24 hours; 1st and 2nd replicate rows

{"Test Smiles": "O=C(N/N=C/c1ccc(Cl)cc1)N/N=C/c1ccc(Cl)cc1", "Value Unit": "µg/mL", "Relation Operator": ">", "MIC (μg/ml) at 24 hours, VRE 2": 128}
{"Test Smiles": "NC(=O)N/N=C/c1cccc(C(F)(F)F)c1", "Value Unit": "µg/mL", "Relation Operator": ">", "MIC (μg/ml) at 24 hours, VRE 2": 128}
{"Test Smiles": "Cc1ccccc1C=NNC(=N)NN=Cc1ccccc1C.Cl", "Value Unit": "µg/mL", "Relation Operator": "=", "MIC (μg/ml) at 24 hours, VRE 2": 8}
{"Test Smiles": "Cl.N=C(N)N/N=C/c1ccc(Cl)cc1", "Value Unit": "µg/mL", "Relation Operator": "=", "MIC (μg/ml) at 24 hours, VRE 2": 64}
{"Test Smiles": "CC(=NNC(=N)NN=C(C)c1ccc(C(F)(F)F)cc1)c1ccc(C(F)(F)F)cc1.Cl", "Value Unit": "µg/mL", "Relation Operator": "=", "MIC (μg/ml) at 24 hours, VRE 2": 8}
{"Test Smiles": "N#Cc1ccccc1C=NNC(=S)NN=Cc1ccccc1C#N", "Value Unit": "µg/mL", "Relation Operator": ">", "MIC (μg/ml) at 24 hours, VRE 2": 128}

---

Tested on: MRSA
Experiment: Broth microdilution MIC, Example 7 (NCL812 and analogues)
Assay type: cell-based, Staphylococcus aureus
Details: MRSA 1; 24 hours; duplicate lines per compound
Listed molecules paired with reported MIC (μg/ml) at 24 hours, MRSA 1
Result Type: MIC (μg/ml) at 24 hours, MRSA 1 (µg/mL)

{"Molecule": "Cl.N=C(NN=Cc1cc(Br)co1)NN=Cc1cc(Br)co1 [NCL 133]", "Relation Operator": ">", "Endpoint Result": 128}
{"Molecule": "C/C(=N\\NC(=N)N/N=C/c1ccc(Cl)cc1)c1ccc(Cl)cc1.Cl [NCL081]", "Relation Operator": "=", "Endpoint Result": 4}
{"Molecule": "Cl.N=C(NN=Cc1cccc(O)c1O)NN=Cc1cccc(O)c1O [NCL101]", "Relation Operator": "=", "Endpoint Result": 32}
{"Molecule": "FC(F)(F)c1ccc(-c2nnc(Nc3ccc(Cl)cc3)[nH]2)cc1 [NCL091]", "Relation Operator": ">", "Endpoint Result": 128}
{"Molecule": "CCO/C(N)=N/N=C(\\C)c1ccc(Cl)cc1 [NCL 162]", "Relation Operator": ">", "Endpoint Result": 128}
{"Molecule": "Cl.N=C(NN)NN=Cc1ccc(Cl)cc1 [NCL072]", "Relation Operator": "=", "Endpoint Result": 32}
{"Molecule": "Cl.N=C(N/N=C/c1ccccc1O)N/N=C/c1ccccc1O [NCL107]", "Relation Operator": "=", "Endpoint Result": 8}
{"Molecule": "Cl.N=C(N/N=C/c1ccccc1)N/N=C/c1ccccc1 [NCL100]", "Relation Operator": ">", "Endpoint Result": 128}
{"Molecule": "CC(O)Nc1cc(Cl)ccc1C=NNC(=N)NN=Cc1ccc(Cl)cc1NC(C)O.Cl (centres unmarked) [NCL 168]", "Relation Operator": "=", "Endpoint Result": 32}
{"Molecule": "Cl.N#Cc1ccccc1C=NNC(=N)NN=Cc1ccc(Cl)cc1 [NCL085]", "Relation Operator": ">", "Endpoint Result": 128}
{"Molecule": "Cl.N=C(NN=Cc1cc(O)c(O)cc1O)NN=Cc1cc(O)c(O)cc1O [NCL104]", "Relation Operator": "=", "Endpoint Result": 64}

---

System: E. faecalis #32
Assay: Broth microdilution MIC, Example 7 (NCL analogues), Table 42
Assay type: cell-based, Enterococcus faecalis
Conditions: E. faecalis #32, 24 hours
Listed compounds paired with reported MIC (μg/ml) at 24 hours E. faecalis #32
Result Type: MIC (μg/ml) at 24 hours E. faecalis #32 (µg/mL)

{"Compound": "Cl.OC/C(=N\\Nc1cc(N/N=C(\\CO)c2ccc(Cl)cc2)ncn1)c1ccc(Cl)cc1 [NCL 189]", "Result Type": "MIC (μg/ml) at 24 hours E. faecalis #32", "Relation Operator": ">", "Endpoint Result": 64}
{"Compound": "Nc1nc(N/N=C/c2ccc(Cl)cc2)cc(N/N=C/c2ccc(Cl)cc2)n1 [NCL 179]", "Result Type": "MIC (μg/ml) at 24 hours E. faecalis #32", "Relation Operator": "=", "Endpoint Result": 8}
{"Compound": "CC(Nc1cc(Cl)nc(N)n1)c1ccccc1 (stereo not shown) [NCL 182]", "Result Type": "MIC (μg/ml) at 24 hours E. faecalis #32", "Relation Operator": ">", "Endpoint Result": 64}
{"Compound": "CC(Nc1cnc(NC(C)c2ccc(Cl)cc2)cn1)c1ccc(Cl)cc1 (stereo not shown) [NCL 186]", "Result Type": "MIC (μg/ml) at 24 hours E. faecalis #32", "Relation Operator": ">", "Endpoint Result": 64}
{"Compound": "Cl.[H]/N=C(\\N)NN=C(CCCC)c1ccc(Cl)cc1 [NCL 188]", "Result Type": "MIC (μg/ml) at 24 hours E. faecalis #32", "Relation Operator": "=", "Endpoint Result": 32}
{"Compound": "Cl.[H]/N=C(/N)NN=C(CNN)c1ccc(Cl)cc1 [NCL 190]", "Result Type": "MIC (μg/ml) at 24 hours E. faecalis #32", "Relation Operator": "=", "Endpoint Result": 64}
{"Compound": "CC(Nc1cc(NC(C)c2ccccc2)ncn1)c1ccccc1 (stereo not shown) [NCL 183]", "Result Type": "MIC (μg/ml) at 24 hours E. faecalis #32", "Relation Operator": ">", "Endpoint Result": 64}
{"Compound": "C/C(=N\\Nc1cc(N/N=C(\\C)c2ccc(Cl)cc2)ncn1)c1ccc(Cl)cc1.Cl [NCL 185]", "Result Type": "MIC (μg/ml) at 24 hours E. faecalis #32", "Relation Operator": ">", "Endpoint Result": 64}
{"Compound": "CC(Nc1cc(NC(C)c2ccccc2)nc(N)n1)c1ccccc1 (stereo not shown) [NCL 184]", "Result Type": "MIC (μg/ml) at 24 hours E. faecalis #32", "Relation Operator": "=", "Endpoint Result": 64}
{"Compound": "C/C(=N\\Nc1cc(N/N=C(\\C)c2ccc(Cl)cc2)ncn1)c1ccc(Cl)cc1 [NCL 178]", "Result Type": "MIC (μg/ml) at 24 hours E. faecalis #32", "Relation Operator": ">", "Endpoint Result": 64}

---

System: S. pneumoniae isolates
Assay: Disk diffusion susceptibility (CLSI/EUCAST), Example 5
Type: cell-based, Streptococcus pneumoniae
Conditions: WCH92
# strict inequality: disk diffusion zone diameter < 30 mm yields 1 (yes), everything else yields 0 (no)

{"Test Smiles": "CC1(C)S[C@@H]2[C@H](NC(=O)[C@H](N)c3ccccc3)C(=O)N2[C@H]1C(=O)O", "Target Desc": "S. pneumoniae isolates", "Category": "0 (no)"}
{"Test Smiles": "CCC[C@@H]1C[C@@H](C(=O)N[C@@H]([C@H]2O[C@H](SC)[C@H](O)[C@@H](O)[C@H]2O)[C@H](C)Cl)N(C)C1", "Target Desc": "S. pneumoniae isolates", "Category": "1 (yes)"}
{"Test Smiles": "CO[C@H]1/C=C/O[C@@]2(C)Oc3c(C)c(O)c4c(O)c(c(/C=N/N5CCN(C)CC5)c(O)c4c3C2=O)NC(=O)/C(C)=C\\C=C\\[C@H](C)[C@H](O)[C@@H](C)[C@@H](O)[C@@H](C)[C@H](OC(C)=O)[C@@H]1C", "Target Desc": "S. pneumoniae isolates", "Category": "1 (yes)"}
{"Test Smiles": "O=C(N[C@H](CO)[C@H](O)c1ccc([N+](=O)[O-])cc1)C(Cl)Cl", "Target Desc": "S. pneumoniae isolates", "Category": "0 (no)"}
{"Test Smiles": "CC[C@H]1OC(=O)[C@H](C)[C@@H](O[C@H]2C[C@@](C)(OC)[C@@H](O)[C@H](C)O2)[C@H](C)[C@@H](O[C@@H]2O[C@H](C)C[C@H](N(C)C)[C@H]2O)[C@](C)(O)C[C@@H](C)C(=O)[C@H](C)[C@@H](O)[C@]1(C)O", "Target Desc": "S. pneumoniae isolates", "Category": "1 (yes)"}

---

Assay: Bioassay ranking of the analogues tested
Settings: M + R (MRSA and VRE combined)
Label No if M + R falls below 10 µg/mL; label Yes in every other case.

{"Compound": "Cl.Cl.Nc1nc(N/N=C/C2CCCCC2)cc(N/N=C/C2CCCCC2)n1 [NCL203]", "Category": "Yes"}
{"Compound": "COc1cccc(C=NNC(=N)NN=Cc2cccc(OC)c2)c1.Cl [NCL029]", "Category": "Yes"}
{"Compound": "Cl.N=C(NN=Cc1ccc(Cl)cc1O)NN=Cc1ccc(Cl)cc1O [NCL174]", "Category": "Yes"}
{"Compound": "Cc1ccc(/C=N/Nc2cc(N/N=C/c3ccc(C)cc3)nc(N)n2)cc1 [NCL195]", "Category": "No"}
{"Compound": "C/C(=N\\NC(=N)N/N=C/c1ccc(Cl)cc1)c1ccc(Cl)cc1.Cl [NCL081]", "Category": "No"}
{"Compound": "Cl.N=C(NN=Cc1ccc2[nH]ccc2c1)NN=Cc1ccc2[nH]ccc2c1 [NCL146]", "Category": "Yes"}
{"Compound": "Cl.N=C(N/N=C/c1ccc(Cl)cc1)N/N=C/c1ccc(Cl)cc1F [NCL084]", "Category": "No"}
{"Compound": "N=C(N/N=C/c1ccc(Cl)cc1)N/N=C/c1ccc(Cl)cc1 [NCL812]", "Category": "No"}
{"Compound": "Cl.N=C(N/N=C/c1ccc(Cl)cc1)N/N=C/c1ccccc1Cl [NCL082]", "Category": "No"}
{"Compound": "Cl.N=C(NN=Cc1ccc(Cl)cc1N)NN=Cc1ccc(Cl)cc1N [NCL157]", "Category": "No"}
{"Compound": "CCCc1ccc(C=NNC(=N)NN=Cc2ccc(CCC)cc2)cc1.Cl [NCL121]", "Category": "Yes"}
{"Compound": "C/C(=N\\NC(=N)N/N=C(\\C)c1ccc(C)cc1)c1ccc(C)cc1.Cl [NCL217]", "Category": "No"}
{"Compound": "Nc1nc(N/N=C/c2ccccc2O)cc(N/N=C/c2ccccc2O)n1 [NCL202]", "Category": "No"}
{"Compound": "CC(=NNC(=N)NN=C(C)c1ccc(Cl)cc1O)c1ccc(Cl)cc1O.Cl [NCL173]", "Category": "Yes"}
{"Compound": "Cl.N=C(NN=C(CO)c1ccc(Cl)cc1)NN=C(CO)c1ccc(Cl)cc1 [NCL177]", "Category": "No"}
{"Compound": "Cl.N=C(N/N=C/c1ccc(F)cc1)N/N=C/c1ccc(F)cc1 [NCL021]", "Category": "Yes"}
{"Compound": "Cl.[H]/N=C(/N)NN=C(CNN)c1ccc(Cl)cc1 [NCL190]", "Category": "Yes"}
{"Compound": "CC(C)c1ccc(/C=N/NC(=N)N/N=C/c2ccc(C(C)C)cc2)cc1.Cl [NCL120]", "Category": "No"}
{"Compound": "CC(=NNC(=N)NN=C(C)c1ccccc1)c1ccccc1.Cl [NCL143]", "Category": "Yes"}
{"Compound": "Cl.N=C(NN=Cc1ccc(Cl)cc1)NN=Cc1ccccc1F [NCL088]", "Category": "No"}
{"Compound": "Nc1nc(N/N=C/c2ccc(F)cc2)cc(N/N=C/c2ccc(F)cc2)n1 [NCL220]", "Category": "Yes"}
{"Compound": "Cc1ccccc1C=NNC(=N)NN=Cc1ccccc1C.Cl [NCL039]", "Category": "Yes"}
{"Compound": "Nc1nc(N/N=C/c2cccc(O)c2)cc(N/N=C/c2cccc(O)c2)n1 [NCL197]", "Category": "No"}
{"Compound": "CCC(=NNC(=N)NN=C(CC)c1ccc(Cl)cc1)c1ccc(Cl)cc1.Cl [NCL153]", "Category": "Yes"}
{"Compound": "C/C(=N\\NC(=N)N/N=C(\\C)c1ccc(Cl)cc1)c1ccc(Cl)cc1.Cl [NCL062]", "Category": "No"}
{"Compound": "Cl.N=C(N/N=C/c1ccc(Cl)cc1F)N/N=C/c1ccc(Cl)cc1F [NCL216]", "Category": "No"}
{"Compound": "C/C(=N\\NC(=N)N/N=C(\\C)c1ccc(C(F)(F)F)cc1)c1ccc(Cl)cc1.Cl [NCL089]", "Category": "No"}
{"Compound": "Cc1cccc(C=NNC(=N)NN=Cc2cccc(C)c2)c1.Cl [NCL040]", "Category": "No"}
{"Compound": "N=C(NN=Cc1ccc(Cl)cc1N)NN=Cc1ccc(Cl)cc1N [NCL169]", "Category": "Yes"}
{"Compound": "Cl.N=C(N/N=C/c1ccc(C(F)(F)F)cc1)N/N=C/c1ccc(C(F)(F)F)cc1 [NCL035]", "Category": "Yes"}
{"Compound": "Cl.N=C(N/N=C/c1cccc(Cl)c1)N/N=C/c1cccc(Cl)c1 [NCL054]", "Category": "No"}
{"Compound": "Cl.N=C(NN=Cc1cccc(F)c1)NN=Cc1cccc(F)c1 [NCL023]", "Category": "Yes"}
{"Compound": "Nc1nc(N/N=C/c2ccc(Cl)cc2)cc(N/N=C/c2ccc(Cl)cc2)n1 [NCL179]", "Category": "No"}
{"Compound": "CCCC/C(=N\\NC(=N)N)c1ccc(Cl)cc1.Cl [NCL188]", "Category": "Yes"}
{"Compound": "Cl.N=C(N/N=C/c1ccccc1O)N/N=C/c1ccccc1O [NCL107]", "Category": "Yes"}
{"Compound": "C/C(=N\\NC(=N)N/N=C(\\C)c1ccc(C(C)(C)C)cc1)c1ccc(C(C)(C)C)cc1.Cl [NCL219]", "Category": "No"}
{"Compound": "C/C(=N\\NC(=N)N/N=C/c1ccc(Cl)cc1)c1ccc(C(F)(F)F)cc1.Cl [NCL080]", "Category": "No"}
{"Compound": "Cl.N=C(N/N=C/c1ccc(Cl)cc1)N/N=C/c1ccc(C(F)(F)F)cc1F [NCL078]", "Category": "No"}
{"Compound": "Nc1nc(N/N=C/c2ccc(Br)cc2)cc(N/N=C/c2ccc(Br)cc2)n1 [NCL193]", "Category": "No"}
